test: qHTS assay for small molecule agonists of the antioxidant response element (ARE) signaling pathway (AID 743202); conditions: HepG2 ARE-bla reporter, beta-lactamase FRET, 16 h; series mostly up to 73.3 µM; for activation: % is set by controls: 0 for no effect and ±100 for the full control effect
Records with an inconclusive call do not appear. Activity calls are given as the source filed them. Calls come from the whole dose curve; as a rule, active = well fitted activation curve with a large enough effect in the signal ratio in the repeat runs (not every such curve was filed as active); inconclusive = weak or mixed curves, or effect the other way; inactive = no such curve, though single readings can be large or run the other way; the % refers to the signal ratio.
Return exactly one item of active, inactive

- CN1C(=S)CN=C(c2ccccc2)c2cc(Cl)ccc21: inactive
- CCOP(=O)(OCC)OP(=O)(OCC)OCC: inactive
- CCCCCCI: inactive
- O=C(Cc1ccccc1)OCc1ccccc1: inactive
- ClCCCN1CCN(c2cccc(Cl)c2)CC1: active

Would you mind telling me which call this test gave CCOc1nc(C(Cl)(Cl)Cl)ns1 ?
inactive

Would you mind telling me which call this test gave CC1=C(C(=O)O)N2C(=O)[C@@H](N)[C@H]2SC1 ?
inactive

Would you mind telling me which call this test gave C=C(C)CN(CC)c1c([N+](=O)[O-])cc(C(F)(F)F)cc1[N+](=O)[O-] ?
inactive

* * *

assay: qHTS assay to identify small molecule agonists of the vitamin D receptor (VDR) signaling pathway - cell viability counter screen (AID 743224); conditions: VDR-bla HEK293T viability, CellTiter-Glo luminescence, 16 h; series mostly up to 62.6 µM; note: % is set by controls: 0 for no effect and ±100 for the full control effect; nearly all actives have a fitted effect of over 50% in size
Results filed as inconclusive are left out. Active and inactive are the calls of the source. Calls follow the shape of the dose curve; as a rule, active = well fitted cell-killing curve with a large enough effect in the repeat runs; inconclusive = weak or mixed curves, or effect the other way; inactive = no such curve, though single readings can be large or run the other way.
Return exactly one item of active, inactive

* O=C1OC(c2ccc(O)c(S(=O)(=O)O)c2)(c2ccc(O)c(S(=O)(=O)O)c2)c2c(Br)c(Br)c(Br)c(Br)c21 | inactive
* CCCCc1ccc(O)cc1 | inactive
* CN1C(=S)CN=C(c2ccccc2)c2cc(Cl)ccc21 | inactive
* C[C@]12CC[C@H]3[C@@H](CCC4=CC(=O)CC[C@@]43C)[C@@H]1CC[C@@H]2C(=O)O | inactive
* Nc1cc2c3c(c1)C(c1ccccc1)=N[C@@H](NC(=O)c1cccnc1)C(=O)N3CC2 | inactive

Would you mind telling me which call this test gave CCc1cc2c(s1)-n1c(C)nnc1CN=C2c1ccccc1Cl ?
inactive

Would you mind telling me which call this test gave C(CCOCC1CO1)COCC1CO1 (stereo not drawn) ?
inactive

Would you mind telling me which call this test gave COP(=S)(OC)Oc1ccc(S(N)(=O)=O)cc1 ?
inactive

Would you mind telling me which call this test gave O=C1CN2CCOC2(c2ccccc2Cl)c2cc(Cl)ccc2N1 (stereo not drawn) ?
inactive

* * *

test: qHTS assay for small molecules that induce genotoxicity in human embryonic kidney cells expressing luciferase-tagged ATAD5 (AID 651632); settings: HEK293T ATAD5-luciferase induction, 16 h; series mostly up to 83.3 µM; note: % is set by controls: 0 for no effect and ±100 for the full control effect; nearly all actives have a fitted effect of over 15% in size
Records with an inconclusive call do not appear. Active and inactive are the calls of the source. Calls follow the shape of the dose curve; as a rule, active = well fitted activation curve with a large enough effect in the repeat runs; inconclusive = weak or mixed curves; inactive = no such curve, though single readings can be large or run the other way.
OBSERVABLE: outcome

* CC1=C(C(=O)Nc2ccccc2)S(=O)(=O)CCO1 | inactive
* COC(=O)c1ccccc1S(=O)(=O)NC(=O)Nc1nc(C)cc(C)n1 | inactive
* N#Cc1c(Cl)cccc1Cl | inactive
* C=CCC1=C(C)[C@@H](OC(=O)[C@@H]2[C@@H](C=C(C)C)C2(C)C)CC1=O | inactive
* ClCC(Cl)Cl | inactive
* CN(N=O)C(N)=O | inactive
* COCC(=O)N(c1c(C)cccc1C)N1CCOC1=O | inactive
* COc1cccc(C(=O)NN(C(=O)c2cc(C)cc(C)c2)C(C)(C)C)c1C | inactive

What outcome value was documented for this compound, CCOC(=O)CP(=O)(OCC)OCC ?
inactive

What outcome value was documented for this compound, CCSC(=O)N(CC)C1CCCCC1 ?
inactive

What outcome value was documented for this compound, NC(=O)O ?
inactive

What outcome value was documented for this compound, CN1CCN(C(=O)O[C@H]2c3nccnc3C(=O)N2c2ccc(Cl)cn2)CC1 ?
inactive

What outcome value was documented for this compound, CCCCOC(=O)c1ccccc1N ?
inactive

What outcome value was documented for this compound, ClC(Br)Br ?
inactive

What outcome value was documented for this compound, COc1ccc2c(c1OC)CN1CCc3cc4c(cc3C1C2)OCO4 (stereo unspecified) ?
inactive

What outcome value was documented for this compound, O=[N+]([O-])c1cccc2c([N+](=O)[O-])cccc12 ?
inactive

* * *

assay: qHTS RealTime-Glo MT Cell Viability Assay in HEK293 cells - 16 hour (AID 1224872); details: RealTime-Glo luminescence; series mostly up to 76.8 µM; note: top concentration of the series differs between compounds; % is set by controls: 0 for no effect and ±100 for the full control effect; nearly all actives have a fitted effect of over 50% in size
Results filed as inconclusive are left out. Active and inactive are the calls of the source. Calls come from the whole dose curve; as a rule, active = well fitted cell-killing curve with a large enough effect in the repeat runs; inconclusive = weak or mixed curves, or effect the other way; inactive = flat fitted curve, though single readings scatter.
OBSERVABLE: outcome

Some compounds with recorded outcome:
* O=C(O)c1cccc(Cl)c1 | inactive
* COc1cc(C[C@@H](C)N)c(OC)cc1C | inactive
* CCOC(=O)N(C)C(=O)CSP(=S)(OCC)OCC | inactive
* ClCC(Cl)Cl | inactive
* O=[N+]([O-])c1cc(Cl)c(Cl)c(Cl)c1 | inactive

What outcome value was documented for this compound, CC(N)=S ?
inactive

* * *

assay: qHTS assay to identify small molecule antagonists of the estrogen related receptor (ERR) signaling pathway from Tox21 library (AID 1224848); conditions: ERR reporter cell line, luciferase antagonist mode, 18 h; series mostly up to 92.4 µM; note: nearly all actives have a fitted effect of over 50% in size
Inconclusive results are not listed. Calls of active or inactive are those of the source. Calls come from the whole dose curve; as a rule, active = well fitted inhibition curve with a large enough effect in the repeat runs; inconclusive = weak or mixed curves; inactive = no such curve, though single readings can be large or run the other way.
Return exactly one item of label 1 for active, label 0 for inactive

- COC(=O)c1c(C(F)F)nc(C(F)(F)F)c(C2=NCCS2)c1CC(C)C: label 0
- COc1cc(OC)nc(NC(=O)NS(=O)(=O)c2ncccc2OCC(F)(F)F)n1: label 0
- C[C@]12CC[C@H]3[C@@H](CCC4=CC(=O)CC[C@@]43C)[C@@H]1CC[C@@H]2C(=O)O: label 0
- CC1(C(=O)Nc2ccc(O)c(Cl)c2Cl)CCCCC1: label 1
- N#Cc1ccncc1: label 0
- CCCCOC(=O)[C@@H](C)Oc1ccc(Oc2ccc(C#N)cc2F)cc1: label 0
- COc1cc(C[C@@H](C)N)c(OC)cc1C: label 0
- CC(Cl)(Cl)[N+](=O)[O-]: label 0

Would you mind telling me which call this test gave CCCCCCBr ?
label 0

Would you mind telling me which call this test gave CNC(=O)Oc1ccccc1C1OCCO1 ?
label 0

Would you mind telling me which call this test gave CC1CCCCC1NC(=O)Nc1ccccc1 (stereo not given) ?
label 0

Would you mind telling me which call this test gave CCOC(=O)CP(=O)(OCC)OCC ?
label 0

Would you mind telling me which call this test gave C[C@H]1CCC[C@H](O)CCCCCc2cc(O)cc(O)c2C(=O)O1 ?
label 1

* * *

Target: Acetylcholinesterase (Homo sapiens) (UniProt P22303)
Sequence (P22303 whole entry, looked up): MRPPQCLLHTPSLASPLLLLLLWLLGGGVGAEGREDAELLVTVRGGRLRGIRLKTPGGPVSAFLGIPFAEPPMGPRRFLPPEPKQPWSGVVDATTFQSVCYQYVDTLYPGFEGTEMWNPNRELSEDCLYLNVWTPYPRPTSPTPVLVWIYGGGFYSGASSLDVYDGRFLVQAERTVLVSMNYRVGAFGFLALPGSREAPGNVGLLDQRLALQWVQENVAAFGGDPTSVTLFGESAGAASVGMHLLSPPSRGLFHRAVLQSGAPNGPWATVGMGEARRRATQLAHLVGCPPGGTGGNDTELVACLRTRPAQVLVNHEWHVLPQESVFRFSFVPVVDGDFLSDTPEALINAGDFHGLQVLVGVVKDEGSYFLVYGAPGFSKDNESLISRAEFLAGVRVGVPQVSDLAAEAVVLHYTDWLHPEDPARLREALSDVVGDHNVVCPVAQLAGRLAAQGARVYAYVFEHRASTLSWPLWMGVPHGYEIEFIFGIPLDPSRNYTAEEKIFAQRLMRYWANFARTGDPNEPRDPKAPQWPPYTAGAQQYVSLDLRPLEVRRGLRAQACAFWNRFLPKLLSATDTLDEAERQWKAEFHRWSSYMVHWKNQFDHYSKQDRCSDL
Assay: Acetylcholinesterase (AChE) small molecule antagonists: enzyme-based qHTS assay with human liver microsomes (AID 1347399); note: nearly all actives have a fitted effect of over 60% in size
Settings: qHTS inhibition; series mostly up to 115 µM
From the text: National Center for Advancing Translational Sciences [NCATS] Division of Preclinical Innovation [DPI] U.S. Environmental Protection Agency [EPA] National Institutes of Environmental Health Sciences [NIEHS] National Toxicology Program [NTP] U.S. Food and Drug Administration [FDA] Acetylcholinesterase (AChE) is the primary cholinesterase in the body that hydrolyzes a key neurotransmitter, acetylcholine. Inhibition of AChE activity can lead to neurotoxicity. […]
Active and inactive are the calls of the source. The call rests on the fitted dose curve.
Return exactly one item of true = active, false = inactive

# count of solved cases: 2
* O=C(NCO)NCO | false
* N#CC(O)c1ccccc1 (centres undefined) | false

Would you mind telling me which call this test gave O=[N+]([O-])c1cccc(O)c1 ?
false

Would you mind telling me which call this test gave CCCCP(CCCC)CCCC ?
false

Would you mind telling me which call this test gave COC(=O)c1ccccc1S(=O)(=O)NC(=O)Nc1nc(C)cc(C)n1 ?
false

Would you mind telling me which call this test gave Nc1n[nH]c(N)n1 ?
false

Would you mind telling me which call this test gave COc1ncc(F)c2nc(S(=O)(=O)Nc3c(F)cccc3F)nn12 ?
false

Would you mind telling me which call this test gave C[C@H]1CCC[C@H](O)CCCCCc2cc(O)cc(O)c2C(=O)O1 ?
false

Would you mind telling me which call this test gave CNC(=O)Oc1c(C(C)(C)C)cc(C)cc1C(C)(C)C ?
false

Would you mind telling me which call this test gave O=c1oc2ccccc2c(O)c1C1CCCc2ccccc21 (centres undefined) ?
false

Would you mind telling me which call this test gave COc1cc(OC)nc(NC(=O)NS(=O)(=O)c2ncccc2C(=O)N(C)C)n1 ?
false

Would you mind telling me which call this test gave COP(N)(=S)Oc1ccccc1C(=O)OC(C)C (centres undefined) ?
true

Would you mind telling me which call this test gave CCCSC(=O)Cl ?
false

Would you mind telling me which call this test gave CC(C)CC#N ?
false

* * *

experiment: qHTS assay for identifying genotoxic compounds that show differential cytotoxicity against isogenic chicken DT40 cell lines with known DNA damage response pathways - Rad54/Ku70 mutant cell line (AID 743015); settings: DT40 Rad54/Ku70 mutant viability, CellTiter-Glo, 40 h; series mostly up to 66.8 µM; note: nearly all actives have a fitted effect of over 60% in size
Results filed as inconclusive are left out. Calls of active or inactive are those of the source. Calls come from the whole dose curve; as a rule, active = well fitted cell-killing curve with a large enough effect in the repeat runs; inconclusive = weak or mixed curves; inactive = no such curve, though single readings can be large or run the other way.
Return exactly one item of true = active, false = inactive

* O=C(O)c1ccc2[nH]cc(CCCCN3CC=C(c4ccccc4)CC3)c2c1 | false
* CCOC(=O)NC(=S)Nc1ccccc1NC(=S)NC(=O)OCC | true
* CCCSC(=O)N(CCC)CCC | false
* C[N+](=O)[O-] | false
* O=C1OC(=O)C2C1C1(Cl)C(Cl)=C(Cl)C2(Cl)C1(Cl)Cl (stereo not given) | false
* O=C(CCN1CC1)OCC(CO)(COC(=O)CCN1CC1)COC(=O)CCN1CC1 | false
* CC1(C(=O)Nc2ccc(O)c(Cl)c2Cl)CCCCC1 | true
* ClC(Br)Br | false
* CC(C)CP(=S)(S)CC(C)C | true
* CCOC(=O)N(C)C(=O)CSP(=S)(OCC)OCC | true

Would you mind telling me which call this test gave CC1(C)COP(Oc2ccccc2)OC1 ?
false

Would you mind telling me which call this test gave Oc1c(Cl)cccc1Cl ?
false
